Property: OD450 nm; scope: individual binders
TESTED SYSTEM: monkey GPC3-His protein (monkey)
EXPERIMENTAL PROTOCOL: ELISA, monkey GPC3-His coated; antibody 0.0008 nM
Output: the number by itself.

- BINDER: "hAb003LH1L1 (antibody, human IgG1, V domains shown) VH: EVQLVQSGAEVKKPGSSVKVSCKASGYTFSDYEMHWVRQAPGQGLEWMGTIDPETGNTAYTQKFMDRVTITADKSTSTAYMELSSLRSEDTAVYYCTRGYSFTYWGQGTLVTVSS VL: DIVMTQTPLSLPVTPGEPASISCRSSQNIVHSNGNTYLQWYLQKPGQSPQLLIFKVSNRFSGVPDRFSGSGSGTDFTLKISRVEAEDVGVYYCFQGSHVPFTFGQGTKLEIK"
  OD450 nm: 0.188
- BINDER: "hAb007LH2L1 (antibody, human IgG1, V domains shown) VH: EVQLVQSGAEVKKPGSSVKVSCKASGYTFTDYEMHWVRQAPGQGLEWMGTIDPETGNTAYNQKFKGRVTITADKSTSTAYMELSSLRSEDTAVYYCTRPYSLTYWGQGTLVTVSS VL: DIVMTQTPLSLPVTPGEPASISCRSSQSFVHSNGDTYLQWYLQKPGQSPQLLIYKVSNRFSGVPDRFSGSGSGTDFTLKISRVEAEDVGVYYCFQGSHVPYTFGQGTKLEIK"
  OD450 nm: 0.101
- BINDER: "hAb007LH1L1 (antibody, human IgG1, V domains shown) VH: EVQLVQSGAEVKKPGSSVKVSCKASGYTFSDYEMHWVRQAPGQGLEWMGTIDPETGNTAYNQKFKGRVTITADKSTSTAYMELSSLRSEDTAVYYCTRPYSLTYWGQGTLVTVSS VL: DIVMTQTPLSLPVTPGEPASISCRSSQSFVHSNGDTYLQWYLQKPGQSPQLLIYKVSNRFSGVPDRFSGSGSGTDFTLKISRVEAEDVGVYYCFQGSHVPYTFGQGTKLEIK"
  OD450 nm: 0.085
- BINDER: "hAb003LH2L1a (antibody, human IgG1, V domains shown) VH: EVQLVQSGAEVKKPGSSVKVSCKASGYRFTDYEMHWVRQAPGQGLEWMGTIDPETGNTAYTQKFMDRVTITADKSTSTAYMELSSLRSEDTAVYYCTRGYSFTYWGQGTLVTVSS VL: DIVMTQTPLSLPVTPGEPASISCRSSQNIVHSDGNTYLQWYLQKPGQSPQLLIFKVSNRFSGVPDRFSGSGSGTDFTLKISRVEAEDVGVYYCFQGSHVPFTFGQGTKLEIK"
  OD450 nm: 0.15

Consider the record given below.
Ask: Could you share which OD450 nm value was measured for hAb003LH3L1 (antibody, human IgG1, V domains shown) VH: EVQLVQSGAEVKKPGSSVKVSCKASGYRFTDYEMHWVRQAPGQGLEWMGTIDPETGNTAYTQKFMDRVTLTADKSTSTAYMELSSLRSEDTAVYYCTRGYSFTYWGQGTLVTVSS VL: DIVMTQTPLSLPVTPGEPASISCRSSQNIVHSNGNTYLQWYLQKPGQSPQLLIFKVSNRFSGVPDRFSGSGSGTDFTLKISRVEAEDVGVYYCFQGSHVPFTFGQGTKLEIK ?
Reply: 0.16
